Reference for the values: ChEMBL document CHEMBL1201862

System: UO-31
Experiment: NCI tumour cell line growth inhibition, 48 h
Activity calls are given as the source filed them. Rule as the data show it: active = GI50 up to about 1.1 µM and inactive = higher.
Measured GI50, listed per entry.

Below, 4 molecules whose answers are already recorded.
1) CCCCCCC(O)CC[C@H]1CCC[C@@H](C)N1 (some centres not stated) ... > 84.3 µM (inactive)
2) CC(C)(C)c1cc(-c2cc(C(C)(C)C)n(-c3ccccc3)n2)nn1-c1ccccc1 ... 30.4 µM (inactive)
3) CN1CCN(c2ccc3[nH]c(-c4ccc5[nH]c(-c6ccc(N(C)CCCl)cc6)nc5c4)nc3c2)CC1 ... 18.7 µM (inactive)
4) [N-]=[N+]=Nc1nnc(CCCCc2nnc(N=[N+]=[N-])o2)o1 ... > 100 µM (inactive)

## Task Query: GI50; subject: `COc1ccccc1-c1cc(=O)c2ccc(OC)c(OC)c2o1`
## Result 30.2 µM (inactive)

## Task Query: GI50; subject: CCOP(=O)(C/C(O)=C1\C(=O)C(CCCNC(=O)OC(C)(C)C)N(Cc2ccc(OC)c(OC)c2)C1=O)OCC (configuration not stated)
## Result > 100 µM (inactive)
